System: Streptococcus pneumoniae A28272
assay_name: MIC, broth micro dilution assay (NCCLS)
Format: cell-based
condition_label: 50% Mueller-Hinton medium and 50% Todd Hewitt medium, 35° C., 18 hours
Documented MIC (μg/mL) Streptococcus pneumoniae A28272 across a set of compounds
Number in µg/mL, nothing else.

INSERT INTO measurements (compound, val) VALUES
  ('COC(C)=C1NC(=O)C(C(C)O)NC(=O)c2csc(n2)-c2cc(O)c(-c3nc(C(N)=O)cs3)nc2-c2csc(n2)C2COC(=O)c3c4c5c(cccc5n3OCCCS(=O)(=O)O)COC(=O)C(OC3CC(C)(O)C(N(C)C)C(C)O3)C(OC4)C(NC(=O)c3csc1n3)c1nc(cs1)C(=O)N2 (centres unmarked) [Example 53]', 0.125);

With those in mind, consider the next compound.
Reported MIC (μg/mL) Streptococcus pneumoniae A28272 for C=CCOc1cc2c(nc1-c1nc(C(=O)NC(=C)C(N)=O)cs1)-c1csc(n1)C1COC(=O)c3c4c5c(cccc5n3OCC=C)COC(=O)C(OC3CC(C)(O)C(N(C)C)C(C)O3)C(OC4)C(NC(=O)c3csc(n3)C(=C(C)OC)NC(=O)C(C(C)O)NC(=O)c3csc-2n3)c2nc(cs2)C(=O)N1 (centres unmarked) [Example 74] : what is it? 0.0005

----------
Tested on: Streptococcus pneumoniae A28272
assay_name: MIC, broth micro dilution assay (NCCLS)
Format: cell-based
condition_label: 50% Mueller-Hinton medium and 50% Todd Hewitt medium, 35° C., 18 hours
Cut-off 0.06 µg/mL on MIC (μg/mL) Streptococcus pneumoniae A28272: below means Met, at or above means Not met.

INSERT INTO measurements (molecule, category_label) VALUES
  ('COC(C)=C1NC(=O)C(C(C)O)NC(=O)c2csc(n2)-c2cc(O)c(-c3nc(C(N)=O)cs3)nc2-c2csc(n2)C2COC(=O)c3c4c5c(cccc5n3OCCCCS(=O)(=O)O)COC(=O)C(OC3CC(C)(O)C(N(C)C)C(C)O3)C(OC4)C(NC(=O)c3csc1n3)c1nc(cs1)C(=O)N2 (stereo not shown)', 'Not met'),
  ('C=C(NC(=O)c1csc(-c2nc3c(cc2O)-c2nc(cs2)C(=O)NC(C(C)O)C(=O)NC(=C(C)OC)c2nc(cs2)C(=O)NC2c4nc(cs4)C(=O)NC(COC(=O)c4c5c6c(cccc6n4OCCCNS(=O)(=O)N(C)C)COC(=O)C(OC4CC(C)(O)C(N(C)C)C(C)O4)C2OC5)c2nc-3cs2)n1)C(N)=O (stereo not shown)', 'Met'),
  ('C=C(NC(=O)c1csc(-c2nc3c(cc2O)-c2nc(cs2)C(=O)NC(C(C)O)C(=O)NC(=C(C)OC)c2nc(cs2)C(=O)NC2c4nc(cs4)C(=O)NC(COC(=O)c4c5c6c(cccc6n4OCCn4ccnc4)COC(=O)C(OC4CC(C)(O)C(N(C)C)C(C)O4)C2OC5)c2nc-3cs2)n1)C(N)=O (stereo not shown)', 'Met');

// next entry
Criterion: MIC (μg/mL) Streptococcus pneumoniae A28272 strictly below 0.06 µg/mL. Is it met by C=C(NC(=O)c1csc(-c2nc3c(cc2OP(=O)(O)OCCCl)-c2nc(cs2)C(=O)NC(C(C)O)C(=O)NC(=C(C)OC)c2nc(cs2)C(=O)NC2c4nc(cs4)C(=O)NC(COC(=O)c4c5c6c(cccc6n4O)COC(=O)C(OC4CC(C)(O)C(N(C)C)C(C)O4)C2OC5)c2nc-3cs2)n1)C(N)=O (stereo not shown) ? Met
